system: Penicillium chrysogenum; experiment: Antifungal activity against Penicillium chrysogenum Thom AUCC 530 at 1 mg/mL after 48 hrs by agar diffusion assay; format: functional; details: Thom AUCC 530, 48 h, read-out: DIZ
measured-parameter: zone of inhibition at 1000 µg/mL (mm)
Field: numeric (mm). Do not append units.

Study these solved cases before continuing.
                      smiles_representation    target_or_test_system                measured_parameter  data_value
0  COc1ccc(/C=C2/SC(=S)N(c3ccc(S(N)(=O)=O)cc3)C2=O)cc1  Penicillium chrysogenum  zone of inhibition at 1000 µg/mL          17
1  O=C1CSC(=S)N1c1ccc(S(=O)(=O)c2ccc(N3C(=O)CSC3=S)cc2)cc1  Penicillium chrysogenum  zone of inhibition at 1000 µg/mL          12
2  COc1ccc(/C=C2\SC(=S)N(c3ccc(S(=O)(=O)c4ccc(N5C(=O)/C(=C/c6ccc(OC)cc6)SC5=S)cc4)cc3)C2=O)cc1  Penicillium chrysogenum  zone of inhibition at 1000 µg/mL          11

Item: "CCO/C=C1/SC(=S)N(c2ccc(S(N)(=O)=O)cc2)C1=O" | zone of inhibition at 1000 µg/mL: 18

Item: "NS(=O)(=O)c1ccc(N2C(=O)/C(=C\c3ccc(/C=C4/SC(=S)N(c5ccc(S(N)(=O)=O)cc5)C4=O)cc3)SC2=S)cc1" | zone of inhibition at 1000 µg/mL: 15

Item: "N#CC(C#N)=C1SC(=S)N(c2ccc(S(N)(=O)=O)cc2)C1=O" | zone of inhibition at 1000 µg/mL: 14
